Reference for the values: patent US8822462B2

target: NR1/NR2D (Homo sapiens, UniProt O15399+Q05586); experiment: Two electrode voltage clamp, Xenopus laevis oocytes expressing NR1/NR2D
Sequence (O15399 28-1336, species assumed, other chains not shown): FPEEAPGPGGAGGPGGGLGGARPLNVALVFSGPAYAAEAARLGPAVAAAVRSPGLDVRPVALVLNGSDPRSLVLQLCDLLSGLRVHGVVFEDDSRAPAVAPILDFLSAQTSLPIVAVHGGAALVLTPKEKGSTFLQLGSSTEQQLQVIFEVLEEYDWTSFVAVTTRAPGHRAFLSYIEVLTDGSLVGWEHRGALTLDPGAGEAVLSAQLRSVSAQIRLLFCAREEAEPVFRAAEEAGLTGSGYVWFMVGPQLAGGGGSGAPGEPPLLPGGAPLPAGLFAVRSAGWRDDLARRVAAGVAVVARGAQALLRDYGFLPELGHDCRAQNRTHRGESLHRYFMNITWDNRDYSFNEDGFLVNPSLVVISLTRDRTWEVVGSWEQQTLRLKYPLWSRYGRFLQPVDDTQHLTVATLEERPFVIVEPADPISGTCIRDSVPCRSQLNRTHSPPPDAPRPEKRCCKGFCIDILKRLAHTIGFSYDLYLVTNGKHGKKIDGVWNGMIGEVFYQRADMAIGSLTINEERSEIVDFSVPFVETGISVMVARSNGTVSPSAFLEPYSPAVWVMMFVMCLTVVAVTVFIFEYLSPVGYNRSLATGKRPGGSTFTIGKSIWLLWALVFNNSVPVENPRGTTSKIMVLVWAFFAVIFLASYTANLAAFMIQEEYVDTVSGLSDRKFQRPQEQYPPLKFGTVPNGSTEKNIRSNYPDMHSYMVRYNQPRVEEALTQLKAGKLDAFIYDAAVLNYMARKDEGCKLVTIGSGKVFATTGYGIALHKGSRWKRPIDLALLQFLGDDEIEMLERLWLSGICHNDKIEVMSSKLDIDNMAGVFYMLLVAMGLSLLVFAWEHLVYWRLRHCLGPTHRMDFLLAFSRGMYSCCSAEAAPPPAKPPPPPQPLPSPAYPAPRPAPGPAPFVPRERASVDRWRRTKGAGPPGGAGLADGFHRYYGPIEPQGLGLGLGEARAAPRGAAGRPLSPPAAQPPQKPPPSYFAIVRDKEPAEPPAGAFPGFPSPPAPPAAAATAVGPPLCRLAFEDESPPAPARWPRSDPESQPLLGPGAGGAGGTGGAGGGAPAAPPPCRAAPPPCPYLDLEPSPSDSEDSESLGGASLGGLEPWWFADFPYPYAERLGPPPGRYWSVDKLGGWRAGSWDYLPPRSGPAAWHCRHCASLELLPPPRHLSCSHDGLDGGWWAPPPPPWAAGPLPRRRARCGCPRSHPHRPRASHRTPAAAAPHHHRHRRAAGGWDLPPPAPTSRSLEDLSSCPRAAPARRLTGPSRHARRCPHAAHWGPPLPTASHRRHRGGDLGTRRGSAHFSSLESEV
pIC50: −log10 of the molar value.
Decide by pIC50: equal to or exceeding 5 means fulfilled, less means not fulfilled.

{"columns": ["compound", "assigned-category"],
 "data": [
  ["CSC1=NCCN1C(=O)c1ccc(C(C)(C)C)cc1", "not fulfilled"],
  ["Cc1sc(NC(=O)c2ccc(C(C)(C)C)cc2)c(C(=O)O)c1C", "not fulfilled"],
  ["COc1ccc(OCC2c3cc(OC)c(OC)cc3CCN2C(=O)c2cccc(C(F)(F)F)c2)cc1 (stereo not shown)", "fulfilled"],
  ["COc1ccc(-c2csc(NC(=O)c3ccc(C(C)(C)C)cc3)c2C(=O)O)cc1", "not fulfilled"],
  ["COc1ccc(OCC2c3cc(OC)c(OC)cc3CCN2C(=O)c2ccc(Cl)cc2)cc1 (stereo not shown)", "fulfilled"],
  ["COc1ccc(OCC2c3cc(OC)c(OC)cc3CCN2C(=O)c2cccs2)cc1 (stereo not shown)", "fulfilled"],
  ["COc1ccc(OCC2c3cc(OC)c(OC)cc3CCN2C(=O)c2cccc(F)c2)cc1 (stereo not shown)", "fulfilled"],
  ["COc1ccc(OCC2c3ccc(OC)cc3CCN2C(=O)c2cccc(Br)c2)cc1 (stereo not shown)", "fulfilled"],
  ["COc1ccc(OCC2c3cc(OC)c(OC)cc3CCN2C(=O)c2cccc([N+](=O)[O-])c2)cc1 (stereo not shown)", "not fulfilled"],
  ["CCOc1ccc(-c2csc(NC(=O)c3ccc(C(C)(C)C)cc3)c2C(=O)O)cc1", "not fulfilled"],
  ["Cc1cc(C(=O)O)c(NC(=O)c2ccc(C(C)(C)C)cc2)s1", "not fulfilled"],
  ["COc1ccc(OCC2c3cc4c(cc3CCN2C(=O)c2cccc(Cl)c2)OCO4)cc1 (stereo not shown)", "fulfilled"],
  ["COc1ccc(OCC2c3ccc(OC)cc3CCN2C(=O)c2cccc(Cl)c2)cc1 (stereo not shown)", "fulfilled"],
  ["CC(C)(C)c1ccc(CSc2nc(N)cc(O)n2)cc1", "not fulfilled"],
  ["COc1ccc(/C=C/C2c3cc(OC)c(OC)cc3CCN2C(=O)c2cccc(Cl)c2)cc1 (stereo not shown)", "fulfilled"],
  ["COc1ccc(OCC2c3c(cc(OC)cc3OC)CCN2C(=O)c2cccc(Br)c2)cc1 (stereo not shown)", "fulfilled"],
  ["Cc1ccc(-c2csc(NC(=O)c3ccc(C(C)(C)C)cc3)c2C(=O)O)cc1", "not fulfilled"],
  ["COc1ccc(OCC2c3cc(OC)c(OC)cc3CCN2C(=O)c2ccc(F)c(Cl)c2)cc1 (stereo not shown)", "fulfilled"],
  ["COc1ccc(OCC2c3cc(OC)c(OC)cc3CCN2C(=O)c2cccc(Cl)c2)cc1 (stereo not shown)", "fulfilled"],
  ["CC(C)(C)c1ccc(C(=O)Nc2sc3c(c2C(=O)O)CCC3)cc1", "not fulfilled"],
  ["CC1CCc2c(sc(NC(=O)c3ccc(C(C)(C)C)cc3)c2C(=O)O)C1 (stereo not shown)", "not fulfilled"],
  ["CC(C)(C)c1ccc(C(=O)Nc2scc(-c3ccccc3)c2C(=O)O)cc1", "not fulfilled"],
  ["Cc1sc(NC(=O)c2ccc(C(C)(C)C)cc2)c(C(N)=O)c1C", "not fulfilled"],
  ["CC(C)(C)c1ccc(C(=O)NC2=C(C(=O)O)C3CCCCCC3S2)cc1 (stereo not shown)", "not fulfilled"],
  ["CCc1cc(C(=O)O)c(NC(=O)c2ccc(C(C)(C)C)cc2)s1", "not fulfilled"],
  ["COc1ccc(OCC2c3c(cc(OC)cc3OC)CCN2C(=O)c2cccc(Cl)c2)cc1 (stereo not shown)", "not fulfilled"],
  ["COc1ccc(OC[C@@H]2c3cc(OC)c(OC)cc3CCN2C(=O)c2cccc(Cl)c2)cc1", "fulfilled"],
  ["COc1ccc(OCC2c3cc(OC)c(OC)cc3CCN2C(=O)c2cccc(Br)c2)cc1 (stereo not shown)", "fulfilled"],
  ["CC(C)(C)c1ccc(C(=O)Nc2sc3c(c2C(=O)O)CCCC3)cc1", "not fulfilled"],
  ["COc1ccc(OCC2c3cc(OC)c(OC)cc3CCN2C(=O)c2cccc(C)c2)cc1 (stereo not shown)", "fulfilled"]
]}
